Target: gastrin receptors (Rattus norvegicus)
Construct: from tissue; host or cells: isolated perfused whole stomach of immature rats (33-50 g, ca. 21 days old)
Sequence (P30553 1-452): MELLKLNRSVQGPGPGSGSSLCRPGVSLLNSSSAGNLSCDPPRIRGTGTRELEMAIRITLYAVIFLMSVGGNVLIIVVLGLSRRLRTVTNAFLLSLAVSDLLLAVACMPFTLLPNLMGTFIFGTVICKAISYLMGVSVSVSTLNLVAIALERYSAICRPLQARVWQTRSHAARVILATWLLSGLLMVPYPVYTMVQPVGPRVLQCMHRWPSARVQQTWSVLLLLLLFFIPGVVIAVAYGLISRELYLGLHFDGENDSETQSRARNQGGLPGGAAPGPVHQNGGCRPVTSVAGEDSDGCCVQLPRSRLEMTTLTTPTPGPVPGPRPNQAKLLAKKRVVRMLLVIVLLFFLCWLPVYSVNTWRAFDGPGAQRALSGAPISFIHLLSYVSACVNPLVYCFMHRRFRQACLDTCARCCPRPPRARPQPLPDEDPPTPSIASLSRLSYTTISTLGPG
Test: gastrin antagonist activity in an immature rat stomach assay (pentagastrin-stimulated acid secretion)
Conditions: isolated immature rat stomach, cumulative pentagastrin dose-response curves, read-out: Gastrin pKB (converted)
measurement-name: Kb (µM)
Return type: number; implicit unit µM.

- molecule: "COC(=O)[C@H](C)NC(=O)C1C2C(C)=C(C)C(c3ccccc32)C1C(=O)NCC12CC3CC(CC(C3)C1)C2 (stereo partly drawn)"
  measurement-name: "Kb"
  readout-units: "µM"
  numeric-value: 1.58

Query :: Item O=C(O)CNC(=O)[C@H]1CCCN1C(=O)C1C2c3ccccc3C(c3cc4ccccc4cc32)C1C(=O)NCC12CC3CC(CC(C3)C1)C2 (single isomer, unassigned) [Example 38] has what recorded Kb?
Result :: 0.631

Query :: Item COC(=O)[C@H](C)NC(=O)C1C2C=CC(CC2)C1C(=O)NCC12CC3CC(CC(C3)C1)C2 (stereo partly drawn) has what recorded Kb?
Result :: 1.26

Query :: Item O=C(NCC12CC3CC(CC(C3)C1)C2)C1C2C=CC(c3ccccc32)C1C(=O)N1CCC[C@@H]1C(=O)O (stereo partly drawn) [Example 9] has what recorded Kb?
Result :: 0.794

Query :: Item O=C(O)c1cc(NC(=O)[C@H](Cc2ccccc2)NC(=O)C2C3C=CC(c4ccccc43)C2C(=O)NCC23CC4CC(CC(C4)C2)C3)cc(C(=O)O)c1 (stereo partly drawn) has what recorded Kb?
Result :: 0.0501

Query :: Item O=C(NCC12CC3CC(CC(C3)C1)C2)C1C2C=CC(c3ccccc32)C1C(=O)N[C@H](Cc1c[nH]c2ccccc12)C(=O)O (single isomer, unassigned) [Example 18] has what recorded Kb?
Result :: 1
